Measured pEC50 by item
experimental.target: ΔF508-CFTR (Homo sapiens, UniProt P13569, DEL508-508)
Construct: Primary lung epithelial cells homozygous for the Cystic Fibrosis-causing ΔF508 mutation were differentiated for a minimum of 4 weeks; endogenous in cells
Sequence (P13569 with tags, fused parts or gaps DEL508-508): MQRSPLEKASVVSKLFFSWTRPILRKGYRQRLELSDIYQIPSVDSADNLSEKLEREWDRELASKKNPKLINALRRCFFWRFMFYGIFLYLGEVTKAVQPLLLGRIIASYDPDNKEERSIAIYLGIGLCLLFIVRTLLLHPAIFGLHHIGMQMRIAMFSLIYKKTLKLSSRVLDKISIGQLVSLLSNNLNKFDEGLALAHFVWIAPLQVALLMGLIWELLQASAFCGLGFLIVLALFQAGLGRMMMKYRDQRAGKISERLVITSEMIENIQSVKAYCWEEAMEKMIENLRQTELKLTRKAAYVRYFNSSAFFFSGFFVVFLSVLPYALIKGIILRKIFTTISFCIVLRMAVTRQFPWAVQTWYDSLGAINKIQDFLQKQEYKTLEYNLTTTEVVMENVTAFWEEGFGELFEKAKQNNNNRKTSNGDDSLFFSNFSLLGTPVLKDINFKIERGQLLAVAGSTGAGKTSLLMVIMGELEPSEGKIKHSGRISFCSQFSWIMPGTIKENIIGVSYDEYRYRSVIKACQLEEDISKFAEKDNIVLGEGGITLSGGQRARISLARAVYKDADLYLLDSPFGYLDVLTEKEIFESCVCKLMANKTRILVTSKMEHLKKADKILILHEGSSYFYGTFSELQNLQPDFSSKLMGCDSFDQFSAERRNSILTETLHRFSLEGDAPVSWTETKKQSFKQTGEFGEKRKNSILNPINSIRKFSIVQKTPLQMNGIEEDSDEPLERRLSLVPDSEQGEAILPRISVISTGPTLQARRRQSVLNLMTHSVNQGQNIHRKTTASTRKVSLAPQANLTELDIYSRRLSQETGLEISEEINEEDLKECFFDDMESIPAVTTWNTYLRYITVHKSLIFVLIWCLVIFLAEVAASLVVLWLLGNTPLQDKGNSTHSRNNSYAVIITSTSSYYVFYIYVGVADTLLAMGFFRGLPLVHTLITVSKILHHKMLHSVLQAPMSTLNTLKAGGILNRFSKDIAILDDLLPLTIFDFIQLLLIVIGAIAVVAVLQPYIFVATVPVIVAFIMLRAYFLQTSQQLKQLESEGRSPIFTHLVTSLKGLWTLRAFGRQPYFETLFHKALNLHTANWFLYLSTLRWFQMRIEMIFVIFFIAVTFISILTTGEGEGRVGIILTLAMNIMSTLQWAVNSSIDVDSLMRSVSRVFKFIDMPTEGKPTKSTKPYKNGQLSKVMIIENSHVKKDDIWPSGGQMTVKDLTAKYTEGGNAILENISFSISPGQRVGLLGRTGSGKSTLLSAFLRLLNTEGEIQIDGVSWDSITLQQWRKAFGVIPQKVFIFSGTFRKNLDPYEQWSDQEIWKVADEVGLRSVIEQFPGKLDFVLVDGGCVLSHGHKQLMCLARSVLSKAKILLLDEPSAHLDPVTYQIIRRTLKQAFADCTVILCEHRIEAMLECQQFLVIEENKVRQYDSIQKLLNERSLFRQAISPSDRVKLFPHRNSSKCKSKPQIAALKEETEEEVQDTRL
assay.text: hBE equivalent current (Ieq) assay
condition.parameters: primary lung epithelial cells homozygous for ΔF508, 24 h treatment, AUC of equivalent chloride current after forskolin plus VX-770
pEC50: −log10 of the molar value.

Example cases with answers are listed next.
compound	assay.result
O=C(N[C@H]1C[C@H](C(=O)N2CCC2)C1)c1cc(-c2ccc(F)cc2)on1 [Example 6]	≥ 6.00
O=C(NCCCC(=O)N1CCC1)c1cc(-c2ccccc2)no1 [Example 3]	5.00 to 6.00
O=C(N[C@H]1C[C@H](C(=O)N2CCC2)C1)c1cc(-c2ccccc2)on1 [Example 2]	≥ 6.00
O=C(NCCC(=O)N1CCC1)c1cc(-c2ccccc2)on1 [Example 12]	≥ 6.00
O=C(N[C@H]1C[C@H](C(=O)N2CCC2)C1)c1cc(-c2ccccc2)no1 [Example 4]	5.00 to 6.00

Pending compound:
// pEC50 lookup, compound = CN1CCN(C(=O)CCCNC(=O)c2cc(-c3ccc(F)cc3)on2)CC1 [Example 10] , result: ≥ 6.00

###

experimental.target: ΔF508-CFTR (Homo sapiens, UniProt P13569, DEL508-508)
Construct: Primary lung epithelial cells homozygous for the Cystic Fibrosis-causing ΔF508 mutation were differentiated for a minimum of 4 weeks; endogenous in cells
assay.text: hBE equivalent current (Ieq) assay
condition.parameters: primary lung epithelial cells homozygous for ΔF508, 24 h treatment, AUC of equivalent chloride current after forskolin plus VX-770
metric.name: EC50

The reported ΔF508-CFTR (Homo sapiens, UniProt P13569, DEL508-508) EC50 of O=C(NCCCC(=O)N1CCC1)c1cc(-c2ccc(F)cc2)on1 is ≤ 1000 nM

Recorded EC50 for O=C(NCCCCC(=O)N1CCC1)c1cc(-c2ccccc2)on1 on ΔF508-CFTR (Homo sapiens, UniProt P13569, DEL508-508) was ≤ 1000 nM

Tested system ΔF508-CFTR (Homo sapiens, UniProt P13569, DEL508-508); EC50 recorded for CN1CCN(C(=O)CCCCNC(=O)c2cc(-c3ccccc3)on2)CC1 was ≤ 1000 nM

Data provenance: patent US10899751B2
